Molecular target: UniProtKB Q15759
Sequence (Q15759 whole entry, looked up): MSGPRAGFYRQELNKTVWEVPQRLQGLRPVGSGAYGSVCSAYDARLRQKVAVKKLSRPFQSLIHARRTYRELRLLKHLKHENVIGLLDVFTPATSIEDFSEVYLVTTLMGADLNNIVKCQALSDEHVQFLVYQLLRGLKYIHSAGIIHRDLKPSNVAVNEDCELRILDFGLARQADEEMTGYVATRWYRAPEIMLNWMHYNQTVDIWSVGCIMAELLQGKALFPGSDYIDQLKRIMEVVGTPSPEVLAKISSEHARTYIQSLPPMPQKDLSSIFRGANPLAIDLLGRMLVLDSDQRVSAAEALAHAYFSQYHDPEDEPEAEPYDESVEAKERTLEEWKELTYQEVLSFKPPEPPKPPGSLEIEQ
Assay: radiometric filter-binding kinase assay, Kinase HotSpot
Details: compound 0.5 µM; ATP 10 µM
value kind: residual activity (%)
# value in %; strip the unit string

Per the records, this compound ( CNC(=O)c1cc(Oc2ccc(NC(=O)Nc3ccc(Cl)c(C(F)(F)F)c3)cc2)ccn1 ) has residual activity equal to 46.9

Reported residual activity ( Cc1ccc(NC2=CC(=O)c3sc(C)nc3C2=O)cc1 ) = 102

The recorded residual activity for entry N#CC(C#N)=C(N)/C(C#N)=C/c1ccc(O)cc1 equals 100

Lookup result for CNc1cc2c(Nc3cccc(Br)c3)ncnc2cn1 ; measured residual activity: 115

// field: residual activity; key: CCC(=O)Nc1ccc2ncnc(Nc3cccc(Br)c3)c2c1 ; value = 92.9

Entry Cc1ccc(Nc2nccc(N(C)c3ccc4c(C)n(C)nc4c3)n2)cc1S(N)(=O)=O , residual activity reported as 93.3

residual activity reported for this compound Nc1cccc(-c2cc3c(Oc4cccc(O)c4)ncnc3[nH]2)c1 : 108

According to the records, this compound CCN(CC)C(=O)c1ccc(Nc2nc(OCC3CCCCC3)c3nc[nH]c3n2)cc1 displays residual activity of 85.5

Entry under test: CCOC(=O)c1c(C)[nH]c(/C=C2\C(=O)Nc3ccccc32)c1C . Its residual activity was 97.5

residual activity recorded for this compound, COc1ccc2c(c[n+](C)c3c4cc5c(cc4ccc23)OCO5)c1OC , is 91.6

Measured residual activity, O=S(=O)(c1cccc2cnccc12)N1CCCNCC1 : 91.9

In plain terms, O=C1NC(=O)/C(=C/c2ccc3c(c2)OC(F)(F)O3)S1 has a documented residual activity of 95.7

The reported value for CC(=O)c1ccc(N2CCOCC2)cc1O in terms of residual activity is 99.8

// sample O=c1cc(N2CCOCC2)oc2c1ccc1ccccc12 , its residual activity was 97.9

What the record says about Nc1ncnc2[nH]nc(Nc3ccc(F)cc3)c12 : residual activity is 108

Value of measured residual activity for the entry O=C1NC(=O)C(c2cn(CCCn3ccnc3)c3ccccc23)=C1Nc1ccccc1 : 111

compound c1ccc(-c2n[nH]c3c2oc2ccccc23)cc1 , residual activity observed: 95.7

For reference, reported residual activity for Oc1cccc(-c2nc(N3CCOCC3)c3oc4ncccc4c3n2)c1 stands at 103

Field residual activity (entry CC#CC(=O)Nc1cc2c(Nc3ccc(F)c(Cl)c3)ncnc2cn1 ) reads 96.2

Lab note: measured residual activity of O=C1Nc2ccc(Cl)cc2/C1=C/c1cc(Cl)c(O)c(Cl)c1 was 99.2

Given item O=C(Nc1cccc(Nc2nccc(Nc3cccc(C(F)(F)F)c3)n2)c1)C1CC1 , the value recorded as its residual activity is 103

Noted for CO[C@H]1CC2CC[C@@H](C)[C@@](O)(O2)C(=O)C(=O)N2CCCC[C@H]2C(=O)OC([C@H](C)C[C@@H]2CC[C@@H](O)[C@H](OC)C2)CC(=O)[C@H](C)/C=C(\C)[C@@H](O)[C@@H](OC)C(=O)[C@H](C)C[C@H](C)/C=C/C=C/C=C/1C (stereo partly specified) : its residual activity reads 113

Sure, the documented residual activity for O=C1NC(=O)c2c1c1c3ccccc3n3c1c1c2c2ccccc2n1C1CCC3O1 is 108

// sample CCN(CC)CCNC(=O)c1c(C)[nH]c(/C=C2\C(=O)Nc3ccc(F)cc32)c1C , its residual activity was 99.9

response.value for Nc1ncnc2c1c(-c1ccc(Oc3ccccc3)cc1)cn2C1CCCC1 (field: residual activity) = 106

Briefly, residual activity measured for CC(C)N(CCC(=O)c1ccc2ccccc2c1)Cc1ccccc1 : 108

Value of residual activity reported for the compound CCCC(=O)Oc1ccc2[nH]c(C(=O)c3cc4ccccc4[nH]3)cc2c1 is 87.7

Entry COc1ccc(COc2ccc(Cc3cnc(N)nc3N)cc2OC)cc1 ; residual activity = 98.7

Looking up N#C/C(=C(/N)Sc1ccc(N)cc1)c1ccccc1C(F)(F)F , I found its residual activity recorded as 112

Kindly note the recorded residual activity for Cc1[nH]c(/C=C2\C(=O)Nc3ccc(S(=O)(=O)N(C)c4cccc(Cl)c4)cc32)c(C)c1C(=O)N1CCN(C)CC1 , which is 103

// recorded residual activity for CCN(CC)CCNC(=O)c1c(C)[nH]c(/C=C2\C(=O)Nc3ccc(Cl)cc32)c1C : 100

Data point: c1ccc(-c2n[nH]cc2-c2ccnc3ccccc23)nc1 ; residual activity = 106

Reported residual activity ( COc1cc2ncnc(Nc3cccc(Cl)c3)c2cc1OC ) = 97.5

Entry CC[n+]1c(/C=C/N(C)c2ccccc2)n(-c2ccccc2)c2ccc(-c3nc4ccccc4s3)cc21 ; residual activity = 101

// field: residual activity; key: Nc1ccc2ncnc(NCCc3ccc(Oc4ccccc4)cc3)c2c1 ; value = 98.1

// field: residual activity; key: Cc1ccc(S(=O)(=O)/C=C/C#N)cc1 ; value = 102
